parameter: Retention_time (min)
Number in min, nothing else.

Fill blank: measured Retention_time of the compound COc1ccc(/C=C2\Oc3cc(OCCN4CCCCC4)ccc3C2=O)cc1 is ____.
4.5

Look up Retention_time for this compound: O=C1/C(=C/c2ccc(OCCN3CCCCC3)cc2)Oc2cc(O)ccc21
3.6

Can you look up the measured Retention_time of COc1ccc2c(c1)O/C(=C\c1ccc(OCCN3CCCC3)cc1)C2=O for me?
3.6

What value of Retention_time has been recorded for this entry: CCN(CC)C(=O)Oc1ccc2c(c1)O/C(=C\c1ccc(OCCN3CCCCC3)cc1)C2=O
4.2

What does the data say about its Retention_time? Entry: COc1ccc2c(c1)O/C(=C\c1ccc(OCCN3CCCCC3)cc1)C2=O
4.5
